Reference for the values: patent US8569344B2

Entries and their IC50 values follow.
Target: human α1G T-type channels (Homo sapiens, UniProt O43497)
Construct: expressed in transfected cells; host or cells: HEK 293
Sequence (O43497 whole entry): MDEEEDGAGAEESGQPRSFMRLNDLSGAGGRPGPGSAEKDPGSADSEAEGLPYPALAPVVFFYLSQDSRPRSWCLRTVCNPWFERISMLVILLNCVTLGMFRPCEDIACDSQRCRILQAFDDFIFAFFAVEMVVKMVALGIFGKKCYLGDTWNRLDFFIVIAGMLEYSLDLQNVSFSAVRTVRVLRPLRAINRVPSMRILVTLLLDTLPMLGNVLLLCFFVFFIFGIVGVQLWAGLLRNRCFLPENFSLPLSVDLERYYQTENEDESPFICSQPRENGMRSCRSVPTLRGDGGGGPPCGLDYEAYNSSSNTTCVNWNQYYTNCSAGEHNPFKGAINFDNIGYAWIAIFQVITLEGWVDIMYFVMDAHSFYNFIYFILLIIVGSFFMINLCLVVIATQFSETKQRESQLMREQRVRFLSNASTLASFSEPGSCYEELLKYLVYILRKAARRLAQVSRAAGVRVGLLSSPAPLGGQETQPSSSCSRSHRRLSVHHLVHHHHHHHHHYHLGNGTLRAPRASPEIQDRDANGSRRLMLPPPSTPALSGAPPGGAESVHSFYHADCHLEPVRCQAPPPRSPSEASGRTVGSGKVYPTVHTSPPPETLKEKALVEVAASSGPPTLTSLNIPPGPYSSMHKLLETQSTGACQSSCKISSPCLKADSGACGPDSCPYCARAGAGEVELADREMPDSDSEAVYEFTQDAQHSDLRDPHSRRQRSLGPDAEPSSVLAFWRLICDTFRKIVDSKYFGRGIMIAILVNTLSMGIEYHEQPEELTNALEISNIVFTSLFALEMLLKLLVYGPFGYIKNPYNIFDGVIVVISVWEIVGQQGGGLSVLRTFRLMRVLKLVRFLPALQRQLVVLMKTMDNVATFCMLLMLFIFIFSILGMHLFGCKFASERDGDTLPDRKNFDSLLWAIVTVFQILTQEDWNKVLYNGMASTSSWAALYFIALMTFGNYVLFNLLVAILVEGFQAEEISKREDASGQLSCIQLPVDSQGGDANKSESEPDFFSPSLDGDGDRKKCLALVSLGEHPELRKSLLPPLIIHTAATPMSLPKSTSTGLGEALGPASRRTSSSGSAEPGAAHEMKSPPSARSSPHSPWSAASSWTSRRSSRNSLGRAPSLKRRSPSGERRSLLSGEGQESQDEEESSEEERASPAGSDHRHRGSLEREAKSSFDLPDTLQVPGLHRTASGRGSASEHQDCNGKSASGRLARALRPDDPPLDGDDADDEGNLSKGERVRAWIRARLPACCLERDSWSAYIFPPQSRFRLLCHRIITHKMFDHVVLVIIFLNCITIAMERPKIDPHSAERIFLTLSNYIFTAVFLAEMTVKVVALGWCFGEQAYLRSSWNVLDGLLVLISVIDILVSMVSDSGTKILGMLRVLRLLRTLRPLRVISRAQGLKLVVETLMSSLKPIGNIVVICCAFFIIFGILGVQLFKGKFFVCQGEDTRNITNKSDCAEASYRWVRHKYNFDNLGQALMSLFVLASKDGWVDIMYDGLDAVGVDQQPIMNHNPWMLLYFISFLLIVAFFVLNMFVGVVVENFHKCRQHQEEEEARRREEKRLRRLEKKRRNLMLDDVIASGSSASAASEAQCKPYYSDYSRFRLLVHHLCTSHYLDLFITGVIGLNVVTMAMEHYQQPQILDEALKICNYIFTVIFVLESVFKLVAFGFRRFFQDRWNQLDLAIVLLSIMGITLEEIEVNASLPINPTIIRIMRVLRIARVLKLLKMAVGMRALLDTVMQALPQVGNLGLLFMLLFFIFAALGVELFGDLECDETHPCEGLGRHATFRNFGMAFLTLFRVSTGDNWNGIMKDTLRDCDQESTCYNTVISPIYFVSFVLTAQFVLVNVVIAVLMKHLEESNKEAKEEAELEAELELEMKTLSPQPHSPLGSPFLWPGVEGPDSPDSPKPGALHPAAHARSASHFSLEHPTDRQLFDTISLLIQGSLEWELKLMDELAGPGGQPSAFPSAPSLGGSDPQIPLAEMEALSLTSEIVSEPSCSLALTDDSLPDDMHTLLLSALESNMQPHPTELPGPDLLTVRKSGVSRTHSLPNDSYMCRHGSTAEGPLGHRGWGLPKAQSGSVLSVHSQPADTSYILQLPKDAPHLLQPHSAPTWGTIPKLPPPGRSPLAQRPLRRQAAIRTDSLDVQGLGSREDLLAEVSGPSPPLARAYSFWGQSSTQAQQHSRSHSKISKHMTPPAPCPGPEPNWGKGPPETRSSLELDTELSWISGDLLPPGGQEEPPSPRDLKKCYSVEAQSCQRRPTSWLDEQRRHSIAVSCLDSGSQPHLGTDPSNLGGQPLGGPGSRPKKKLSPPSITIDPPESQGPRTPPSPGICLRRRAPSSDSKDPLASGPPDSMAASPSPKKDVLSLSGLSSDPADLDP
Assay: T-type calcium channel block, whole cell patch clamp in HEK cells (α1G)
Assay type: cell-based
Details: HEK cells, patch clamp, mainly non-inactivated protocol; values above 10 μM shown as 10 μM, below 0.30 μM shown as 0.30 μM; read-out: T-type Calcium Channel Block α1G IC50

Reference set, count: 7
# input Consider the compound shown here: COCC(COC)NC(=O)CN1CCC(CNC(=O)c2cc(C(F)(F)F)cc(C(F)(F)F)c2)CC1 What is its recorded IC50?
# output < 300 nM

# input What value of IC50 has been recorded for this entry: O=C(CN1CCC(CNC(=O)c2cccc(OC(F)(F)F)c2)CC1)NC1CCCC1
# output < 300 nM

# input Fill in: IC50 of CC(C)(C)C(CN1CCC(CC(=O)NC(c2cccc(F)c2)c2cccc(F)c2)CC1)NS(=O)(=O)C1CC1 (centres unmarked) is ___
# output 4080 nM

# input Tell me the measured IC50 of CC(C)(C)C(=O)NC1(CN2CCC(CNC(=O)c3cc(C(F)(F)F)cc(C(F)(F)F)c3)CC2)CC1 , please.
# output 700 nM

# input May I ask what IC50 has been recorded for CC1CCC(C(=O)N(C)CCN2CCC(CNC(=O)c3cc(F)cc(C(F)(F)F)c3)CC2)CC1 (centres unmarked) ?
# output < 300 nM

# input Requested read-out: IC50. Entry: CC(C)S(=O)(=O)NCCN1CCC(CC(=O)Nc2cc(Br)cc(C(F)(F)F)c2)CC1
# output < 300 nM

# input Need IC50, item COc1cc(F)cc(C(=O)NCC2CCN(CCNS(=O)(=O)C(C)(C)C)CC2)c1
# output < 300 nM

Others:
# input Given the entry O=C(CN1CCC(CNC(=O)c2cc(F)cc(C(F)(F)F)c2)CC1)NC1(C2CCOCC2)CC1 , report its measured IC50.
# output < 300 nM
